- protocolDescription: Stability in rat liver microsomes
- Type: ADME, Microsome
- testSettings: read-out: Stability
Note to self: class = bucket of microsomal CLint, per bottom range: < 20 µL/min/mg; center range: ≥ 20 µL/min/mg and < 40 µL/min/mg; top range: ≥ 40 µL/min/mg

Exercise: Dear colleague, I would appreciate it if you could identify the bin for CC(C)[C@@H](O)CC[C@@H](C)[C@H]1CC[C@H]2[C@@H]3CC=C4C[C@@H](O)CC[C@]4(C)[C@H]3CC[C@]12C and reply at your convenience.
Solution: top range

Exercise: Then C[C@H](CC[C@H](O)C1CCC1)[C@H]1CC[C@H]2[C@@H]3CC=C4C[C@@](C)(O)CC[C@]4(C)[C@H]3CC[C@]12C ?
Solution: center range

Exercise: # iterate: C[C@H](CC[C@@H](O)C(F)(F)F)[C@H]1CC[C@H]2[C@@H]3CC=C4C[C@@](C)(O)CC[C@]4(C)[C@H]3CC[C@]12C
Solution: bottom range

Exercise: Another: C[C@H](CCC1(O)CC1)[C@H]1CC[C@H]2[C@@H]3CC=C4C[C@@](C)(O)CC[C@]4(C)[C@H]3CC[C@]12C
Solution: center range

Exercise: Lookup CC(C)[C@H](O)CC[C@@H](C)[C@H]1CC[C@H]2[C@@H]3CC=C4C[C@@H](O)CC[C@]4(C)[C@H]3CC[C@]12C
Solution: top range

Exercise: Try this compound too: C[C@H](CC[C@H](O)C1CC1)[C@H]1CC[C@H]2[C@@H]3CC=C4C[C@@](C)(O)CC[C@]4(C)[C@H]3CC[C@]12C
Solution: center range

Exercise: Now the same for CC[C@H](O)CC[C@@H](C)[C@H]1CC[C@H]2[C@@H]3CC=C4C[C@@](C)(O)CC[C@]4(C)[C@H]3CC[C@]12C
Solution: bottom range

Exercise: Another compound to look at: C[C@H](CCC(C)(C)O)[C@H]1CC[C@H]2[C@@H]3CC=C4C[C@@](C)(O)CC[C@]4(C)[C@H]3CC[C@]12C
Solution: center range

Exercise: Do the same for C[C@H](CC[C@H](O)C(F)(F)F)[C@H]1CC[C@H]2[C@@H]3CC=C4C[C@@](C)(O)CC[C@]4(C)[C@H]3CC[C@]12C please
Solution: bottom range

Exercise: C[C@H](O)CC[C@@H](C)[C@H]1CC[C@H]2[C@@H]3CC=C4C[C@@](C)(O)CC[C@]4(C)[C@H]3CC[C@]12C , same question.
Solution: top range

Exercise: Please give the result for C[C@H](CCCC(C)(C)O)[C@H]1CC[C@H]2[C@@H]3CC=C4C[C@@H](O)CC[C@]4(C)[C@H]3CC[C@]12C too.
Solution: center range

Exercise: Now try C[C@H](CC[C@@H](O)C1CCC1)[C@H]1CC[C@H]2[C@@H]3CC=C4C[C@@](C)(O)CC[C@]4(C)[C@H]3CC[C@]12C .
Solution: center range

Exercise: Again, but for CC(C)[C@H](O)CC[C@@H](C)[C@H]1CC[C@H]2[C@@H]3CC=C4C[C@@](C)(O)CC[C@]4(C)[C@H]3CC[C@]12C
Solution: bottom range

Exercise: Another: CC[C@@H](O)CC[C@@H](C)[C@H]1CC[C@H]2[C@@H]3CC=C4C[C@@](C)(O)CC[C@]4(C)[C@H]3CC[C@]12C
Solution: center range

Exercise: What about C[C@H](CC[C@@H](C)O)[C@H]1CC[C@H]2[C@@H]3CC=C4C[C@@](C)(O)CC[C@]4(C)[C@H]3CC[C@]12C ?
Solution: top range

Exercise: // next record C[C@H](CCCO)[C@H]1CC[C@H]2[C@@H]3CC=C4C[C@@H](O)CC[C@]4(C)[C@H]3CC[C@]12C
Solution: center range

Exercise: Would you mind doing CC(C)[C@@H](O)CC[C@@H](C)[C@H]1CC[C@H]2[C@@H]3CC=C4C[C@@](C)(O)CC[C@]4(C)[C@H]3CC[C@]12C as well?
Solution: center range

Exercise: And what about the compound C[C@H](CC(C)(C)O)[C@H]1CC[C@H]2[C@@H]3CC=C4C[C@@H](O)CC[C@]4(C)[C@H]3CC[C@]12C ?
Solution: top range

Exercise: Do the same for C[C@H](CCC1(O)CC1)[C@H]1CC[C@H]2[C@@H]3CC=C4C[C@@H](O)CC[C@]4(C)[C@H]3CC[C@]12C please
Solution: center range

Exercise: Thanks! And C[C@H](CCC(C)(C)O)[C@H]1CC[C@H]2[C@@H]3CC=C4C[C@@H](O)CC[C@]4(C)[C@H]3CC[C@]12C ?
Solution: center range

Exercise: Another compound to look at: CC(O)CC[C@@H](C)[C@H]1CC[C@H]2[C@@H]3CC=C4C[C@@H](O)CC[C@]4(C)[C@H]3CC[C@]12C (stereo partly drawn)
Solution: bottom range

Exercise: Next entry: C[C@@H]([C@H]1CC[C@H]2[C@@H]3CC=C4C[C@@H](O)CC[C@]4(C)[C@H]3CC[C@]12C)C(C)(C)O
Solution: top range
